The origin of these recorded values is patent US10844070B2.

Experiment: Measurement of brain and plasma levels by LC/MS
Type: in vivo
Settings: mouse, brain; mice, 10 mg/kg oral gavage, after 30 minutes; limit of quantitation 62.5 nM
Description: Compound 1 was administered to 5 mice at a dose of 10 mg/kg as a solution in 50% propylene glycol by oral gavage (5 ml/kg), After 30 minutes, mice were sacrificed and plasma and brain were harvested. The concentration of Compound 1 in plasma and brain were measured by LC/MS.
endpoint name: concentration at 30 min

What concentration at 30 min value was documented for this compound, O=C(O)c1nc2n(n1)-c1ccc(Cl)cc1C(c1ccccc1F)=NC2 ?
< 62.5 nM
